Assay: Stability of the analytical solution of FA decoction at environmental temperature
Format: physicochemical
Details: FA decoction 1.7 g/mL, 2h
Experimental: The raw herb (200 g) was immersed in distilled water (1 : 8, w/v) for 0.5 h at room temperature and thereafter was boiled for 0.5 h. The filtrate was collected, and the residue was boiled again in distilled water (1 : 6, w/v) for 0.5 h. The filtrates were mixed together, filtered through a 0.45 µm porous filtration membrane, then farther concentrated in the rotary evaporator to a final concentration equivalent to 1.7 g/mL FA, and stored at −20°C until analyzed. […]
Let's look at some compounds and their measured Stability in FA decoction, Content.

compound: COc1ccc([C@@H]2CC(=O)c3c(O)cc(O[C@@H]4O[C@H](CO)[C@@H](O)[C@H](O)[C@H]4O[C@@H]4O[C@@H](C)[C@H](O)[C@@H](O)[C@H]4O)cc3O2)cc1O [neohesperidin]
unit.descriptor: mg/mL
Stability in FA decoction, Content: 14.28
//
compound: COc1ccc([C@@H]2CC(=O)c3c(O)cc(O[C@@H]4O[C@H](CO[C@@H]5O[C@@H](C)[C@H](O)[C@@H](O)[C@H]5O)[C@@H](O)[C@H](O)[C@H]4O)cc3O2)cc1O [hesperidin]
unit.descriptor: mg/mL
Stability in FA decoction, Content: 4.83
//
compound: O=C1C[C@@H](c2ccc(O)cc2)Oc2cc(O)cc(O)c21 [Naringenin, naringenin]
unit.descriptor: mg/mL
Stability in FA decoction, Content: 0.26
//
compound: C[C@@H]1O[C@@H](O[C@H]2[C@H](Oc3cc(O)c4c(c3)O[C@H](c3ccc(O)cc3)CC4=O)O[C@H](CO)[C@@H](O)[C@@H]2O)[C@H](O)[C@H](O)[C@H]1O [naringin]
unit.descriptor: mg/mL
Stability in FA decoction, Content: 25.35
//
compound: COc1ccc2ccc(=O)oc2c1C[C@@H](O)C(C)(C)O [Meranzin hydrate, meranzin hydrate]
unit.descriptor: mg/mL
Stability in FA decoction, Content: 0.36
//
compound: COc1ccc([C@@H]2CC(=O)c3c(O)cc(O)cc3O2)cc1O [Hesperetin, hesperetin]
unit.descriptor: mg/mL
Stability in FA decoction, Content: 0.19

###

experiment: Pharmacokinetic study in rats after oral administration of FA decoction; type: in vivo, Sprague-Dawley rats; settings: male, Sprague-Dawley; rat plasma, oral FA decoction 30 g/kg; n=8; read-out: MRT(0–t)
Let's look at some molecules and their measured MRT last.

molecule: O=C1C[C@@H](c2ccc(O)cc2)Oc2cc(O)cc(O)c21 [Naringenin, naringenin]
MRT last: 3.89 h
--
molecule: COc1ccc([C@@H]2CC(=O)c3c(O)cc(O)cc3O2)cc1O [Hesperetin, hesperetin]
MRT last: 4.15 h
--
molecule: COc1ccc2ccc(=O)oc2c1C[C@@H](O)C(C)(C)O [Meranzin hydrate, meranzin hydrate]
MRT last: 3.21 h

###

Let's look at some compounds and their measured Cmax.
assay: Pharmacokinetic study in rats after oral administration of FA decoction; format: in vivo, Sprague-Dawley rats; conditions: male, Sprague-Dawley; rat plasma, oral FA decoction 15 g/kg; n=8
measured.metric: Cmax (ng/mL)

compound: COc1ccc([C@@H]2CC(=O)c3c(O)cc(O)cc3O2)cc1O [Hesperetin, hesperetin]
data.value: 83.9

compound: COc1ccc2ccc(=O)oc2c1C[C@@H](O)C(C)(C)O [Meranzin hydrate, meranzin hydrate]
data.value: 505

compound: O=C1C[C@@H](c2ccc(O)cc2)Oc2cc(O)cc(O)c21 [Naringenin, naringenin]
data.value: 694
